Origin of the recorded values: PubChem BioAssay AID493112

- targetOrSystem: Alkaline phosphatase, tissue-nonspecific isozyme (Homo sapiens)
- assay: effect of analogs on TNAP activity, SAR follow-up, selectivity assay for human IAP activator project, biochemical, human TNAP (AID 493112)
- details: purified TNAP, CDP-Star luminescence, 30 min
Calls of active or inactive are those of the source.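 How the source made its calls: active means mean half-maximal activation concentration below 100 µM; inactive means the rest.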
Your reply should match one of these outcome classes. active, inactive

Some solved cases for reference:
• Cc1ccc(O)c(C=NNC(=O)c2[nH]ncc2Br)c1 = active
• COC(=O)c1ccc(/C=N/NC(=O)C(=O)N/N=C/c2ccc(C(=O)OC)cc2)cc1 = inactive
• O=C(CCN1C(=O)/C(=C/c2ccccc2Cl)SC1=S)NNC(=O)c1ccccc1O = inactive

Prompt: For "CC(C)Oc1ccccc1/C=N/NC(=O)C(=O)N/N=C/c1ccccc1OC(C)C" , which call appears in the assay record?
Completion: active

Prompt: And "O=C(N/N=C\c1ccc2c(c1)OCO2)C(=O)N/N=C/c1ccc2c(c1)OCO2" ?
Completion: inactive

Prompt: And "O=C(NN=Cc1ccc(O)cc1O)C(=O)NN=Cc1ccc(O)cc1O" ?
Completion: inactive

Prompt: And "C/C(=N\NC(=O)c1[nH]nc2c1CCc1ccccc1-2)c1ccccc1O" ?
Completion: active
